Below: a set of entries, each annotated with reported kon.
MEASURED_TARGET: T1, recombinant human IGF-II (Insulin-like Growth Factor II) (human, UniProt P01344 25-91, biotinylated (Biotinyl-IGF-II, GroPep) where immobilised in SPR, site not stated; not biotinylated in ITC and as SPR analyte)
T1 construct: also called IGF2; IGF-2
T1 sequence (P01344 25-91 limits assumed): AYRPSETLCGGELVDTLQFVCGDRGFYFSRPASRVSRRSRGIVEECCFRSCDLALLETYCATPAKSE
PROTOCOL_DETAILS: SPR, IGF-II immobilised, kinetic fit
Write it as a number; the unit M⁻¹ s⁻¹ goes unstated.

Some solved cases for reference:
- BINDER: "IGF2R domain 11 with glutamine at position 1544 (E1544Q) (receptor) NEHDDCQVTNPSTGHLFDLSSLSGRAGFTAAYSQKGLVYMSICGENENCPPGVGACFGQTRISVGKANKRLRYVDQVLQLVYKDGSPCPSKSGLSYKSVISFVCRPEAGPTNRPMLISLDKQTCTLFFSWHTPLACEQATHHHHHH"
  UNIT_OF_MEASUREMENT: "M⁻¹ s⁻¹"
  kon: "1.76e+06"
- BINDER: "IGF2R domain 11 with leucine at position 1544 (E1544L) (receptor) NEHDDCQVTNPSTGHLFDLSSLSGRAGFTAAYSLKGLVYMSICGENENCPPGVGACFGQTRISVGKANKRLRYVDQVLQLVYKDGSPCPSKSGLSYKSVISFVCRPEAGPTNRPMLISLDKQTCTLFFSWHTPLACEQATHHHHHH"
  UNIT_OF_MEASUREMENT: "M⁻¹ s⁻¹"
  kon: "1.05e+06"
- BINDER: "IGF2R domain 11 with tyrosine at position 1544 (E1544Y) (receptor) NEHDDCQVTNPSTGHLFDLSSLSGRAGFTAAYSYKGLVYMSICGENENCPPGVGACFGQTRISVGKANKRLRYVDQVLQLVYKDGSPCPSKSGLSYKSVISFVCRPEAGPTNRPMLISLDKQTCTLFFSWHTPLACEQATHHHHHH"
  UNIT_OF_MEASUREMENT: "M⁻¹ s⁻¹"
  kon: 944000
- BINDER: "wild type IGF2R domain 11 (amino acids 1511-1650) with C-terminal His6 tag, from Pichia pastoris (receptor, also called WT; wild type domain 11) NEHDDCQVTNPSTGHLFDLSSLSGRAGFTAAYSEKGLVYMSICGENENCPPGVGACFGQTRISVGKANKRLRYVDQVLQLVYKDGSPCPSKSGLSYKSVISFVCRPEAGPTNRPMLISLDKQTCTLFFSWHTPLACEQATHHHHHH"
  UNIT_OF_MEASUREMENT: "M⁻¹ s⁻¹"
  kon: 662000

Let's switch to this binder now.
Ask | Give its kon value. Item: IGF2R domain 11 with glycine at position 1544 (E1544G) (receptor) NEHDDCQVTNPSTGHLFDLSSLSGRAGFTAAYSGKGLVYMSICGENENCPPGVGACFGQTRISVGKANKRLRYVDQVLQLVYKDGSPCPSKSGLSYKSVISFVCRPEAGPTNRPMLISLDKQTCTLFFSWHTPLACEQATHHHHHH
Reply | 1.1e+06
